B1: CSNK1G1 (parent)
chain: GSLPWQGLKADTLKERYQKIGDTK

Variants of: B1
protocol.notes: protein stability index of a GFP-peptide fusion (GPS, HEK-293T) (PSI 1-6); higher = more stable;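 further: lentivirally expressed fusions sorted by FACS into six bins by GFP to DsRed ratio, PSI derived from sequencing read proportions per bin multiplied by bin number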
conditions: c terminus: a fixed tail appended
Class condition met: protein stability index at least 4. Class condition not met: protein stability index below 4.

seq	answer.label
GSLPWQGLKADTLKERYQKIGCTK [D22C]	condition not met
GSLWWQGLKADTLKERYQKIGDTK [P4W]	condition not met
GSLPWQGLKADLLKERYQKIGDTK [T12L]	condition not met
GSLPWQGLKADTLKERYPKIGDTK [Q18P]	condition met
GSLPWQGLKADTLQERYQKIGDTK [K14Q]	condition not met
